Target or test system: UniProt P21554
Conditions used: CHO, at 1 µM
Rule: inhibition of 9% or more gives class 1; anything lower gives class 0.

[[record]]
chemical_smiles = "CCCCCc1cc(O)c2cc(Cc3cccc(O)c3)c(=O)oc2c1"
cat = "class 0"

[[record]]
chemical_smiles = "CCCCC1(c2cc(O)c3cc(Cc4ccccc4O)c(=O)oc3c2)CCCC1"
cat = "class 1"

[[record]]
chemical_smiles = "CCCCCc1cc(OC)c2cc(Cc3ccccc3C)c(=O)oc2c1"
cat = "class 0"

[[record]]
chemical_smiles = "CCCCCc1cc(OC)c2cc(Cc3cccc(Cl)c3)c(=O)oc2c1"
cat = "class 0"

[[record]]
chemical_smiles = "CCCCCCC(C)(C)c1cc(O)c2cc(Cc3ccccc3O)c(=O)oc2c1"
cat = "class 0"

[[record]]
chemical_smiles = "CCCCCc1cc(O)c2cc(Cc3ccccc3Cl)c(=O)oc2c1"
cat = "class 1"

[[record]]
chemical_smiles = "CCCCCc1cc(OC)c2cc(Cc3ccccc3OC)c(=O)oc2c1"
cat = "class 1"

[[record]]
chemical_smiles = "CCCCCCC(C)(C)c1cc(OC)c2cc(Cc3ccccc3)c(=O)oc2c1"
cat = "class 1"

[[record]]
chemical_smiles = "COc1cccc(Cc2cc3c(OC)cc(CBr)cc3oc2=O)c1"
cat = "class 1"

[[record]]
chemical_smiles = "CCCCC1(c2cc(OC)c3cc(Cc4ccccc4OC)c(=O)oc3c2)CCCC1"
cat = "class 1"

[[record]]
chemical_smiles = "CCCCCCCC(C)(C)c1cc(O)c2cc(Cc3ccccc3O)c(=O)oc2c1"
cat = "class 0"

[[record]]
chemical_smiles = "COc1cccc(Cc2cc3c(OC)cc(Br)cc3oc2=O)c1"
cat = "class 0"


###

Target or test system: Cannabinoid receptor 1 (Homo sapiens, UniProt P21554)
Sequence (P21554 whole entry): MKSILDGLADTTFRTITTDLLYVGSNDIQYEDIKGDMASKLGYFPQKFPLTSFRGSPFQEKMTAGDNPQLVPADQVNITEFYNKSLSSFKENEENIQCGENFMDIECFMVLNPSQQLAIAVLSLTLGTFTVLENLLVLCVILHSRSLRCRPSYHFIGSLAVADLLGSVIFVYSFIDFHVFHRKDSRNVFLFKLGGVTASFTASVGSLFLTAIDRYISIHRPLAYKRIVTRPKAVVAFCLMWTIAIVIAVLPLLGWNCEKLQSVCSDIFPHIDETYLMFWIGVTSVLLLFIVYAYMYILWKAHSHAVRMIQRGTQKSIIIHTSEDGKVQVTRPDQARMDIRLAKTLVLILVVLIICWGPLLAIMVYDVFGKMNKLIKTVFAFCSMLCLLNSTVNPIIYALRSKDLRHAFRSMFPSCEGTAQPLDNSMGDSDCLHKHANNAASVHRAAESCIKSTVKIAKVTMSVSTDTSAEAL
Assay overview: Agonist activity at human CB1 receptor expressed in CHO cells assessed as inhibition of forskolin-stimulated cAMP accumulation using [3H]-cAMP after 5 mins by liquid scintillation counter
Parameter: EC50 (nM)

[[record]]
chemical_smiles = "CCCCCc1cc(OC)c2cc(Cc3cccc(OC)c3)c(=O)oc2c1"
parameter = "EC50"
recorded_number = 430

[[record]]
chemical_smiles = "CCCCCc1cc(OC)c2cc(Cc3ccccc3OC)c(=O)oc2c1"
parameter = "EC50"
recorded_number = 56


###

Catalogue of compounds with associated inhibition
Target or test system: Cannabinoid receptor 1 (Homo sapiens, UniProt P21554)
Conditions used: CHO, at 1 µM
Parameter: inhibition (%)

[[record]]
chemical_smiles = "CCCCCc1cc(O)c2cc(Cc3ccccc3O)c(=O)oc2c1"
recorded_number = 109

[[record]]
chemical_smiles = "CCCCCc1cc(OC)c2cc(Cc3cccc(C)c3)c(=O)oc2c1"
recorded_number = 0

[[record]]
chemical_smiles = "COc1cccc(Cc2cc3c(OC)cccc3oc2=O)c1"
recorded_number = 0

[[record]]
chemical_smiles = "CCCCCc1cc(O)c2cc(Cc3cccc(Cl)c3)c(=O)oc2c1"
recorded_number = 70

[[record]]
chemical_smiles = "CCCCCc1cc(O)c2cc(Cc3ccccc3)c(=O)oc2c1"
recorded_number = 0

[[record]]
chemical_smiles = "CCCCC1(c2cc(O)c3cc(Cc4ccccc4O)c(=O)oc3c2)CCCCC1"
recorded_number = 0


###

Target or test system: Cannabinoid receptor 2 (Homo sapiens, UniProt P34972)
Sequence (P34972 whole entry): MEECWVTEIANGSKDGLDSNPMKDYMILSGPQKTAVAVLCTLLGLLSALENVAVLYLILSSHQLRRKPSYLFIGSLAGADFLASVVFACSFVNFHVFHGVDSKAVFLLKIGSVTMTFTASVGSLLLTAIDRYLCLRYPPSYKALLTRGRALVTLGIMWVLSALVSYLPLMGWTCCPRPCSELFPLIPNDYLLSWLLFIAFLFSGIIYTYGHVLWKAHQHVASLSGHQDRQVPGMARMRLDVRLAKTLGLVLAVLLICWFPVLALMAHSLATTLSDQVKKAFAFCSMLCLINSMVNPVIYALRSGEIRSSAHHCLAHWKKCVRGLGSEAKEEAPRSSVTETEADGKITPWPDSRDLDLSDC
Simple rule here: Ki less than 400 nM is class 1, otherwise class 0.

[[record]]
chemical_smiles = "Cc1ccc(Cc2cc3c(O)cc(C)cc3oc2=O)cc1"
cat = "class 0"

[[record]]
chemical_smiles = "COc1cccc(Cc2cc3c(OC)cc(CO[Si](c4ccccc4)(c4ccccc4)C(C)(C)C)cc3oc2=O)c1"
cat = "class 0"

[[record]]
chemical_smiles = "CCCCCc1cc(O)c2cc(Cc3cccc(C)c3)c(=O)oc2c1"
cat = "class 0"

[[record]]
chemical_smiles = "CCCCCc1cc(O)c2cc(Cc3cccc(Cl)c3)c(=O)oc2c1"
cat = "class 0"

[[record]]
chemical_smiles = "CCCCC1(c2cc(O)c3cc(Cc4ccccc4O)c(=O)oc3c2)CCCCC1"
cat = "class 1"

[[record]]
chemical_smiles = "CCCCC1(c2cc(O)c3cc(Cc4ccccc4O)c(=O)oc3c2)CCCC1"
cat = "class 1"

[[record]]
chemical_smiles = "CCCCCc1cc(O)c2cc(Cc3ccccc3Cl)c(=O)oc2c1"
cat = "class 0"

[[record]]
chemical_smiles = "CCCCCc1cc(O)c2cc(Cc3ccccc3O)c(=O)oc2c1"
cat = "class 0"

[[record]]
chemical_smiles = "COc1cccc(Cc2cc3c(OC)cccc3oc2=O)c1"
cat = "class 0"

[[record]]
chemical_smiles = "Cc1cc(O)c2cc(Cc3ccccc3C)c(=O)oc2c1"
cat = "class 0"

[[record]]
chemical_smiles = "Cc1ccc(C(C)C)c2cc(Cc3ccccc3O)c(=O)oc12"
cat = "class 0"

[[record]]
chemical_smiles = "CCCCCCC(C)(C)c1cc(O)c2cc(Cc3ccccc3)c(=O)oc2c1"
cat = "class 0"

